Molecular target: UniProt:Q12809
Sequence (Q12809 whole entry): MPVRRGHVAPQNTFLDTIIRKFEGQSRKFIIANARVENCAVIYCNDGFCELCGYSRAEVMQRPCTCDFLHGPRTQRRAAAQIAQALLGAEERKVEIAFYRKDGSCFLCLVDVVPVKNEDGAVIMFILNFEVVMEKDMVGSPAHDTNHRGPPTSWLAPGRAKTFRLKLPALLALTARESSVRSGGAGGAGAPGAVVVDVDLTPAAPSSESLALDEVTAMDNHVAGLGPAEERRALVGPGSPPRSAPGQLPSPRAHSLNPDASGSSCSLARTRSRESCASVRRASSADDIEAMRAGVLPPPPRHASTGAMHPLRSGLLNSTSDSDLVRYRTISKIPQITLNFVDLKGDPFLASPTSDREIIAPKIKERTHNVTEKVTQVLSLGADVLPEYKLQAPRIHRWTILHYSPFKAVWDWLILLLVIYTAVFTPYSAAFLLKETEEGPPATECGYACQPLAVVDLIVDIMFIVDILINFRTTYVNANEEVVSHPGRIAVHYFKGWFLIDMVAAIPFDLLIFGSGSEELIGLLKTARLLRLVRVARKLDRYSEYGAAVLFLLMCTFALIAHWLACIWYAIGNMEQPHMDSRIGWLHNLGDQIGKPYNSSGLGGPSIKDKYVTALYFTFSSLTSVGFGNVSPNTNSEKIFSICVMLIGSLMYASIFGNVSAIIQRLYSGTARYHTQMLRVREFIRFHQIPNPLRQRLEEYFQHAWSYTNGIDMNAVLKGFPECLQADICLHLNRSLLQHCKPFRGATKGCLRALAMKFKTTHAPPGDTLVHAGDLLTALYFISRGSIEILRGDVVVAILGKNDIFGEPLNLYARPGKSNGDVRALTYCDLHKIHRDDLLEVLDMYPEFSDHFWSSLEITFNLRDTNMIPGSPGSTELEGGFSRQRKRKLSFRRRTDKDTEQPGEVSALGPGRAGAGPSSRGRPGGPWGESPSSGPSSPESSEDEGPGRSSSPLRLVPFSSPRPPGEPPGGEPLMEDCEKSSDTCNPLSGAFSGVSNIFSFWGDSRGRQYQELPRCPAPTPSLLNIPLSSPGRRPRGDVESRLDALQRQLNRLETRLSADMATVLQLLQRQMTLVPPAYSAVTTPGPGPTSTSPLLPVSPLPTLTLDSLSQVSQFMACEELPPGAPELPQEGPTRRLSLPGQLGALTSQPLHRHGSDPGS
Test: Inhibition of human ERG expressed in CHO cells assessed as reduction of current amplitude
pIC50: −log10 of the molar value.
Would you mind telling me the reported pIC50 of each entry?

Could you tell me pIC50 for each of these molecules? They are listed below.
1. O=C(O)CCCOc1cccc(CCCCCCOc2cc(-c3ccccc3)cc(-c3ccccc3)n2)c1CCC(=O)O
2. O=C(O)CCCOc1cccc(CCCCCCOc2cc(-c3ccsc3)cc(-c3ccc4c(c3)OCO4)c2)c1CCC(=O)O
3. O=C(O)CCCOc1cccc(CCCCCCOc2cc(-c3ccccc3)cc(-c3ccccc3)c2)c1CCC(=O)O

Solution:
< 5.52
< 5.52
< 5.52

---

Test: Oral bioavailability in Sprague-Dawley rat at 10 mg/kg, po
Format: ADME, organism-based
Details: in vivo
Would you mind telling me the reported bioavailability of each entry?
Numbers only, in %.

[[record]]
entry_smiles = "O=C(O)CCCOc1cccc(CCCCCCOc2cc(-c3ccccc3)cc(-c3ccccc3)n2)c1CCC(=O)O"
reported = 28

[[record]]
entry_smiles = "O=C(O)CCCOc1cccc(CCCCCCOc2cc(-c3ccsc3)cc(-c3ccc4c(c3)OCO4)c2)c1CCC(=O)O"
reported = 70


Could you tell me bioavailability for each of these molecules? They are listed below.
1. O=C(O)CCCOc1cccc(CCCCCCOc2cc(-c3ccncc3)cc(-c3ccncc3)c2)c1CCC(=O)O
2. O=C(O)CCCOc1cccc(CCCCCCOc2cc(-c3cccc(F)c3)cc(-c3ccc4c(c3)OCO4)c2)c1CCC(=O)O

Solution:
1. 10
2. 88

---

Assay: Half life in Sprague-Dawley rat at 2.5 mg/kg, iv
Type: ADME, organism-based
Design: dose 2.5 mg/kg, route intravenous
Conditions: in vivo
readout_name: half-life

Problem: Tell us which half-life value is on record for O=C(O)CCCOc1cccc(CCCCCCOc2cc(-c3ccccc3)cc(-c3ccccc3)n2)c1CCC(=O)O
Solution: 2.1 h

---

Assay: Solubility of compound in small intestinal contents in the fed state at pH 5
Format: ADME
Decide by solubility: equal to or exceeding 0.04 mg/mL means met, less means not met.

Worked set:
[[record]]
entry_smiles = "O=C(O)CCCOc1cccc(CCCCCCOc2cc(-c3ccncc3)cc(-c3ccncc3)c2)c1CCC(=O)O"
discrete_label = "met"

[[record]]
entry_smiles = "O=C(O)CCCOc1cccc(CCCCCCOc2cc(-c3ccccc3)cc(-c3ccccc3)n2)c1CCC(=O)O"
discrete_label = "not met"

[[record]]
entry_smiles = "O=C(O)CCCOc1cccc(CCCCCCOc2cc(-c3ccsc3)cc(-c3ccc4c(c3)OCO4)c2)c1CCC(=O)O"
discrete_label = "not met"


Problem: hey, is solubility for this one >= 0.04 mg/mL? O=C(O)CCCOc1cccc(CCCCCCOc2cc(-c3ccc4c(c3)OCO4)cc(-c3ccccc3F)c2)c1CCC(=O)O
Solution: not met

Problem: hey, is solubility for this one >= 0.04 mg/mL? O=C(O)CCCOc1cccc(CCCCCCOc2cc(-c3ccccc3)cc(-c3ccccc3)c2)c1CCC(=O)O
Solution: met

---

Test: AUC(0 to 24hrs) in rat at 400 mg/kg, po qd treated for 14 days
Format: ADME, organism-based
Design: time < 24 hr, dose 400 mg/kg, route oral
Details: plasma
readout_name: AUC at 24 h (µg·h/mL)
Numbers only, in µg·h/mL.

Problem: Tell us which AUC at 24 h value is on record for O=C(O)CCCOc1cccc(CCCCCCOc2cc(-c3cccc(F)c3)cc(-c3ccc4c(c3)OCO4)c2)c1CCC(=O)O
Solution: 1870
